Data origin, for the record: patent US10358454B2

Please provide measured IC50 for the entries that follow.
# assayedSystem: Mcl-1/Bim (Homo sapiens)
# assayInfo: Mcl-1/Bim ELISA (GST-Mcl-1 binding to biotinylated Bim BH3 peptide)
# reportedConditions: Table 3-B structure II; n ≥ 3; read-out: Mcl-1-Bim IC50 (average ± SEM)
Numbers only, in µM.

Past entries and their recorded results:
{"smilesRepr": "CCOC(=O)Cn1cc(-c2cc(O)c(C(=O)c3[nH]c(Cl)c(Cl)c3-n3c(C(=O)c4cc(Cl)c(-c5cn(CC(=O)OCC)nn5)cc4O)cc(Cl)c3Cl)cc2Cl)nn1", "IC50 / µM": 7.8}
{"smilesRepr": "O=C(O)Cn1cc(-c2ccc(C(=O)c3[nH]c(Cl)c(Cl)c3-n3c(C(=O)c4ccc(-c5cn(CC(=O)O)nn5)cc4O)cc(Cl)c3Cl)c(O)c2)nn1", "IC50 / µM": 16.5}
{"smilesRepr": "O=C(O)Cn1cc(-c2cc(O)c(C(=O)c3[nH]c(Cl)c(Cl)c3-n3c(C(=O)c4cc(Cl)c(-c5cn(CC(=O)O)nn5)cc4O)cc(Cl)c3Cl)cc2Cl)nn1", "IC50 / µM": 5.2}

In the following, a different molecule is considered.
Sample "CCOC(=O)Cn1cc(-c2ccc(C(=O)c3[nH]c(Cl)c(Cl)c3-n3c(C(=O)c4ccc(-c5cn(CC(=O)OCC)nn5)cc4O)cc(Cl)c3Cl)c(O)c2)nn1" — what was its IC50?
18.4

###

# assayedSystem: Bcl-xL/Bim (Homo sapiens, UniProt Q07817)
# Sequence (Q07817 whole entry): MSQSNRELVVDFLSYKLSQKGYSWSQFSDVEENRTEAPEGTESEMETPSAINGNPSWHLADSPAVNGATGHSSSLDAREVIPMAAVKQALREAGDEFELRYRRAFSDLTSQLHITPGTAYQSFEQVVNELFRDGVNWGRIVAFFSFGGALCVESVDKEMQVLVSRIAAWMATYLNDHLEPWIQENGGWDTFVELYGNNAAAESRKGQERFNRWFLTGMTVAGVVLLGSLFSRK
# assayInfo: Bcl-xL/Bim ELISA (GST-Bcl-xL binding to biotinylated Bim BH3 peptide)

{"smilesRepr": "CCOC(=O)Cn1cc(-c2cc(O)c(C(=O)c3[nH]c(Cl)c(Cl)c3-n3c(C(=O)c4cc(Cl)c(-c5cn(CC(=O)OCC)nn5)cc4O)cc(Cl)c3Cl)cc2Cl)nn1", "activity against Bcl-xL/Bim in words": "not active"}
{"smilesRepr": "O=C(O)Cn1cc(-c2cc(O)c(C(=O)c3[nH]c(Cl)c(Cl)c3-n3c(C(=O)c4cc(Cl)c(-c5cn(CC(=O)O)nn5)cc4O)cc(Cl)c3Cl)cc2Cl)nn1", "activity against Bcl-xL/Bim in words": "not active"}

###

# assayedSystem: Bcl-xL/Bim (Homo sapiens, UniProt Q07817)
# assayInfo: Bcl-xL/Bim ELISA (GST-Bcl-xL binding to biotinylated Bim BH3 peptide)
# reportedConditions: read-out: IC50 to inhibit Bcl-xL/Bim binding
Kindly state IC50 for each of the entries shown.
Give bare numbers, in µM.

Record excerpt, results attached:
{"compound": "Cn1c(Cl)c(Cl)c(-n2c(C(=O)c3ccccc3O)cc(Cl)c2Cl)c1C(=O)c1ccccc1O [VI-12]", "assayedSystem": "Bcl-xL/Bim (Homo sapiens, UniProt Q07817)", "reported": 7.1}
{"compound": "O=C(c1ccc(SCc2ccccc2)cc1O)c1[nH]c(Cl)c(Cl)c1-n1c(C(=O)c2ccc(SCc3ccccc3)cc2O)cc(Cl)c1Cl [Compound 1-10]", "assayedSystem": "Bcl-xL/Bim (Homo sapiens, UniProt Q07817)", "reported": 0.6}

Let us examine a further case.
GET /values?readout=IC50&item= O=C(c1ccccc1O)c1[nH]c(Cl)c(Cl)c1-n1c(C(=O)c2ccccc2O)cc(Cl)c1Cl (racemic) [(±)-1, (±)-marinopyrrole A, reference compound]
16.4

###

# assayedSystem: Mcl-1/Bim (Homo sapiens, UniProt Q07820)
# Sequence (Q07820 whole entry): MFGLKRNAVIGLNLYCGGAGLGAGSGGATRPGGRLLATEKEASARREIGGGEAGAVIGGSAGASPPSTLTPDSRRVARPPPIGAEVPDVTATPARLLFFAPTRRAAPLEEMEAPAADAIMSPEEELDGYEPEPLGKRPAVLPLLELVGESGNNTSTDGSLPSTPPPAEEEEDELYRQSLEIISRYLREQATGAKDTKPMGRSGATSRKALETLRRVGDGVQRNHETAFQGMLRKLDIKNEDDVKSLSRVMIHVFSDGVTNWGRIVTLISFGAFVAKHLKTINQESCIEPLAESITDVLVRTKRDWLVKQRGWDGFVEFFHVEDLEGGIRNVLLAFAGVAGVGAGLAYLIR
# assayInfo: Mcl-1/Bim ELISA (GST-Mcl-1 binding to biotinylated Bim BH3 peptide)
# reportedConditions: read-out: IC50 to disrupt Mcl-1/Bim binding
# Procedure: ELISAs were performed using a modified version of a previously described procedure (Doi K et al. J. Biol. Chem. 2012, 287, 10224-10235). Briefly, 40 nM of biotinylated Bim BH3 peptide (Biomatik) in SuperBlock blocking buffer (Pierce) was incubated in high-binding capacity streptavidin-coated plates (Pierce) for 2 h. […] 100 μL of 1 N HCl was added to each well to stop the reaction and absorbance was read at 450 nm using a μQuant plate reader (Bio-Tek). […]
readoutName: pIC50
Numbers only, as −log10 of the molar value.

Field request: pIC50 | item: "O=C(O)CSc1ccc(C(=O)c2[nH]c(Cl)c(Cl)c2-n2c(C(=O)c3ccc(SCC(=O)O)cc3O)cc(Cl)c2Cl)c(O)c1"
5.21

###

# assayedSystem: Mcl-1/Bim (Homo sapiens, UniProt Q07820)
# assayInfo: Mcl-1/Bim ELISA (GST-Mcl-1 binding to biotinylated Bim BH3 peptide)

{"molecule": "O=C(O)CS(=O)(=O)c1ccc(C(=O)c2[nH]c(Cl)c(Cl)c2-n2c(C(=O)c3ccc(S(=O)(=O)CC(=O)O)cc3O)cc(Cl)c2Cl)c(O)c1 [Compound 1-16]", "activity against Mcl-1/Bim in words": "lost potency"}
{"molecule": "O=C(c1ccc(O)cc1O)c1[nH]c(Cl)c(Cl)c1-n1c(C(=O)c2ccc(O)cc2O)cc(Cl)c1Cl [Compound 1-7]", "activity against Mcl-1/Bim in words": "lost potency"}

###

Assign pIC50 to each entry below.
# assayedSystem: Bcl-xL/Bim (Homo sapiens, UniProt Q07817)
# assayInfo: Bcl-xL/Bim ELISA (GST-Bcl-xL binding to biotinylated Bim BH3 peptide)
# reportedConditions: Table 1; Bcl-xL at 10 nM; n ≥ 3; read-out: Bcl-xL-Bim IC50 (average ± SEM)
One number for each entry, as −log10 of the molar value.

Solved entries:
{"compound": "COC(=O)c1ccc(C(=O)c2cc(Cl)c3n2-c2c([nH]c(Cl)c2Cl)C(=O)c2ccc(C(=O)OC)cc2O3)c(O)c1", "assayedSystem": "Bcl-xL/Bim (Homo sapiens, UniProt Q07817)", "pIC50": 5.47}
{"compound": "O=C(c1ccccc1O)c1[nH]c(Cl)c(Cl)c1-n1c(C(=O)c2ccccc2O)cc(Cl)c1Cl (racemic) [(±)-1, (±)-marinopyrrole A, reference compound]", "assayedSystem": "Bcl-xL/Bim (Homo sapiens, UniProt Q07817)", "pIC50": 4.79}

# get_value(readout='pIC50', item= "O=C1c2ccc(OS(=O)(=O)C(F)(F)F)cc2Oc2c(Cl)cc(C(=O)c3ccc(OS(=O)(=O)C(F)(F)F)cc3O)n2-c2c1[nH]c(Cl)c2Cl" )
5.64

###

# assayedSystem: Mcl-1/Bim (Homo sapiens)
# assayInfo: Mcl-1/Bim ELISA (GST-Mcl-1 binding to biotinylated Bim BH3 peptide)
# reportedConditions: ratio of ELISA IC50 values
Rule: selectivity for Mcl-1 over Bcl-xL (Mcl-1/Bim over Bcl-xL/Bim) below 8 fold gives TRUE, anything at or above gives FALSE.

Quick check: selectivity for Mcl-1 over Bcl-xL (Mcl-1/Bim over Bcl-xL/Bim) of O=C(c1ccccc1O)c1[nH]c(Cl)c(Cl)c1-n1c(C(=O)c2ccccc2O)cc(Cl)c1Cl (racemic) [(±)-1, (±)-marinopyrrole A, reference compound] under 8 fold?
TRUE

Lab log: compare recorded selectivity for Mcl-1 over Bcl-xL (Mcl-1/Bim over Bcl-xL/Bim) with 8 fold; is it strictly lower for CC(C)(C)OC(=O)Cn1cc(-c2cc(O)c(C(=O)c3[nH]c(Cl)c(Cl)c3-n3c(C(=O)c4cc(Cl)c(-c5cn(CC(=O)OC(C)(C)C)nn5)cc4O)cc(Cl)c3Cl)cc2Cl)nn1 [Compound 1-18] ?
FALSE

Does this molecule meet the criterion selectivity for Mcl-1 over Bcl-xL (Mcl-1/Bim over Bcl-xL/Bim) < 8 fold? O=C(O)Cn1cc(-c2cc(O)c(C(=O)c3[nH]c(Cl)c(Cl)c3-n3c(C(=O)c4cc(Cl)c(-c5cn(CC(=O)O)nn5)cc4O)cc(Cl)c3Cl)cc2Cl)nn1 [Compound 1-19]
FALSE

Problem: For the molecule CCOC(=O)Cn1cc(-c2cc(O)c(C(=O)c3[nH]c(Cl)c(Cl)c3-n3c(C(=O)c4cc(Cl)c(-c5cn(CC(=O)OCC)nn5)cc4O)cc(Cl)c3Cl)cc2Cl)nn1 [Compound 1-17] , is selectivity for Mcl-1 over Bcl-xL (Mcl-1/Bim over Bcl-xL/Bim) under 8 fold?
FALSE

###

# assayedSystem: Mcl-1/Bim (Homo sapiens, UniProt Q07820)
# assayInfo: Mcl-1/Bim ELISA (GST-Mcl-1 binding to biotinylated Bim BH3 peptide)
# reportedConditions: 1-15 and 1-13 vs 1-10; 1-14 vs 1-11; 1-16 vs 1-15; 1-12 vs 1-9; 1-22, 1-21, 1-20 vs 1-23; 1-37 and N-Me methoxy analogue vs (±)-1
So I've got a bunch of compounds here, and I need their fold loss of potency against Mcl-1/Bim values.
One number for each entry, in fold.

{"smilesRepr": "O=C(O)CSc1ccc(C(=O)c2[nH]c(Cl)c(Cl)c2-n2c(C(=O)c3ccc(SCC(=O)O)cc3O)cc(Cl)c2Cl)c(O)c1", "assayedSystem": "Mcl-1/Bim (Homo sapiens, UniProt Q07820)", "fold loss of potency against Mcl-1/Bim (fold)": 8.7}

Dear colleague, could you please provide fold loss of potency against Mcl-1/Bim for the compounds listed below?
1. O=C(c1ccc(S(=O)(=O)Cc2ccccc2)cc1O)c1[nH]c(Cl)c(Cl)c1-n1c(C(=O)c2ccc(S(=O)(=O)Cc3ccccc3)cc2O)cc(Cl)c1Cl
2. CCOC(=O)CS(=O)(=O)c1ccc(C(=O)c2[nH]c(Cl)c(Cl)c2-n2c(C(=O)c3ccc(S(=O)(=O)CC(=O)OCC)cc3O)cc(Cl)c2Cl)c(O)c1

16
21

// input: 2 compounds below; output: fold loss of potency against Mcl-1/Bim for each
1. O=C(O)CS(=O)(=O)c1ccc(C(=O)c2[nH]c(Cl)c(Cl)c2-n2c(C(=O)c3ccc(S(=O)(=O)CC(=O)O)cc3O)cc(Cl)c2Cl)c(O)c1
2. COc1ccc(CS(=O)(=O)c2ccc(C(=O)c3[nH]c(Cl)c(Cl)c3-n3c(C(=O)c4ccc(S(=O)(=O)Cc5ccc(OC)cc5)cc4O)cc(Cl)c3Cl)c(O)c2)cc1

1. 10
2. 25
